Tested on: serum and liver lipid levels in rats
Test: Serum and liver lipid levels and relative liver weight in rats (100 mg/kg, 10 days)
Type: in vivo, Male rats of the Wistar strain
Conditions: Rattus norvegicus, po, Table 2; in parentheses; Control = (100); read-out: Liver lipid levels TG, relative to Control (100)
assay readout: response vs control in vivo at 100 mg/kg (%)
Quick reminder: number only, in %, skip the unit.

molecule | response vs control in vivo at 100 mg/kg, %
O=C(OCCCCc1ccc(OCCCCc2ccc(Cl)cc2)cc1)c1cccnc1 [n1=4, n2=4] | 112

Kindly note: serum and liver lipid levels in rats, O=C(OCc1ccc(OCCc2ccc(Cl)cc2)cc1)c1cccnc1 [n1=2, n2=1] , response vs control in vivo at 100 mg/kg value reported: 87

Kindly note: serum and liver lipid levels in rats, O=C(OCCc1ccc(OCc2ccc(Cl)cc2)cc1)c1cccnc1 [n1=1, n2=2] , response vs control in vivo at 100 mg/kg value reported: 82.9

Kindly note: serum and liver lipid levels in rats, O=C(OCCc1ccc(OCCc2ccc(Cl)cc2)cc1)c1cccnc1 [n1=2, n2=2] , response vs control in vivo at 100 mg/kg value reported: 84.2

Kindly note: serum and liver lipid levels in rats, O=C(OCc1ccc(OCc2ccc(Cl)cc2)cc1)c1cccnc1 [KCD-232, 4-(4-chlorobenzyloxy)benzyl nicotinate, reference compound] , response vs control in vivo at 100 mg/kg value reported: 63.3

Kindly note: serum and liver lipid levels in rats, O=C(OCc1ccc(OCCCCCCc2ccc(Cl)cc2)cc1)c1cccnc1 [n1=6, n2=1] , response vs control in vivo at 100 mg/kg value reported: 73.9

Kindly note: serum and liver lipid levels in rats, O=C(OCc1ccc(OCCCCc2ccc(Cl)cc2)cc1)c1cccnc1 [n1=4, n2=1] , response vs control in vivo at 100 mg/kg value reported: 80.5

Kindly note: serum and liver lipid levels in rats, O=C(OCCCCc1ccc(OCc2ccc(Cl)cc2)cc1)c1cccnc1 [n1=1, n2=4] , response vs control in vivo at 100 mg/kg value reported: 106

Kindly note: serum and liver lipid levels in rats, O=C(OCc1ccc(OCCCc2ccc(Cl)cc2)cc1)c1cccnc1 [n1=3, n2=1] , response vs control in vivo at 100 mg/kg value reported: 59.3
